Data credit: ChEMBL document CHEMBL1151404

test system: Agrobacterium tumefaciens; test: Antitumor activity against Agrobacterium tumefaciens B6-induced tumor formation at 5 ug/disk after 12 days by potato disk assay; type: functional; conditions: B6, 288 h
Catalogue of inhibition at 5 µg/disc values
The reply should contain only the number, in %.

Guide cases for inhibition at 5 µg/disc, answers given:
molecule	inhibition at 5 µg/disc, %
COc1ccc(C[C@H]2C(=O)N[C@@H](C)C(=O)N(C)[C@@H]3C(=O)N(C)[C@@H](Cc4ccc(O)c(c4)Oc4ccc(cc4)[C@@H]3O)C(=O)N[C@@H](C)C(=O)N[C@@H](C)C(=O)N2C)cc1	-15
CC[C@]1(O)C[C@H]2CN(CCc3c([nH]c4ccccc34)[C@@](C(=O)OC)(c3cc4c(cc3OC)N(C=O)[C@H]3[C@@](O)(C(=O)OC)[C@H](OC(C)=O)[C@]5(CC)C=CCN6CC[C@]43[C@@H]65)C2)C1	-36
COc1cc2cc(c1Cl)N(C)C(=O)C[C@H](OC(=O)[C@H](C)N(C)C(=O)C(C)C)[C@]1(C)O[C@H]1[C@H](C)[C@@H]1C[C@@](O)(NC(=O)O1)[C@H](OC)/C=C/C=C(\C)C2OC (some centres undefined)	-100

Now look at this entry.
# molecule COC(=O)C[C@](O)(CCCC(C)(C)O)C(=O)O[C@@H]1C(OC)=C[C@]23CCCN2CCc2cc4c(cc2[C@H]13)OCO4 [OMACETAXINE MEPESUCCINATE] ; its inhibition at 5 µg/disc = -64
